system: SF-539 CNS; assay: NCI tumour cell line growth inhibition, 48 h
metric-name: TGI (µM)
Express the result in µM but write the number alone.

Observe how each entry below is paired with its result.
- molecule: "NC(CSC(c1ccccc1)(c1ccccc1)c1ccc(Br)cc1)C(=O)O (stereo not given)"
  readout-number: 13.5
- molecule: "CCN(CC)CCCNc1c2cc(OC)ccc2nc2cccc([N+](=O)[O-])c12"
  readout-number: 0.304
- molecule: "COc1ccc(-c2nn(C(=O)c3cc(OC)c(OC)c(OC)c3)c3cc(N)ccc23)cc1"
  readout-number: 1.24

-- ask Request the reported TGI associated with `O=c1[nH]nc(-c2ccccc2)c2[nH]c3c(c12)CCCc1ccccc1-3`
-- reply 36.1

-- ask Would you mind telling me what TGI value was observed for `O=Cc1ccc(Oc2c3ccccc3nc3ccccc23)cc1` ?
-- reply 4.12
